target: NTF2-like domain of Ras GTPase-activating protein SH3-domain-binding protein 1 (G3BP1_(NTF-2)) (human, UniProt Q13283 1-139); assay: ITC
Sequence (Q13283 1-139): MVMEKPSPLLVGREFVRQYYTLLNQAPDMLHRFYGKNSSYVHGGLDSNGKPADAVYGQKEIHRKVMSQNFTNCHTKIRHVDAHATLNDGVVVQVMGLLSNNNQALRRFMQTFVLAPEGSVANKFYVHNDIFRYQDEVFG
valueKind: pKd
Answers are plain numbers, as −log10 of the molar value.

Incoming: May I ask what pKd has been recorded for KDGIIWVATEG [N_(128-138) peptide 1 (KDGIIWVATEG)] ?
Outgoing: 4.93
